# System: CD2F1 mice, L1210 leukemia ip, survival T/C
# assay.explanation: NCI In Vivo Anticancer Drug Screen. Data for tumor model L1210 Leukemia (intraperitoneal) in CD2F1 (CDF1) mice
# measurement.setup: endpoint: mean survival time; dose: 400.0 mg/kg/injection; schedule: Q01DX001 (ip); vehicle: saline; higher = longer survival
Toxic doses and inconclusive results are not listed.

{"columns": ["compound", "T/C"],
 "data": [
  ["CCCN(CCC)S(=O)(=O)c1ccc(NC(=O)Oc2cc(C)ccc2C(C)C)cc1", "94 % of control"],
  ["COc1ccc2ccccc2c1NC(C)=O", "101 % of control"],
  ["C=C1OC(n2cnc3c(N)ncnc32)C(O)C1O (stereo not drawn)", "98 % of control"],
  ["CCOC(=O)C(CC)(OC(C)=O)C(=O)C=O (stereo not drawn)", "116 % of control"],
  ["CCN1CC2CCC(C(=O)O)(C2)C1=O (stereo not drawn)", "102 % of control"],
  ["CCC(N)C(O)C(C)C (stereo not drawn)", "96 % of control"],
  ["CCON(C(C)=O)c1cccc([N+](=O)[O-])c1", "97 % of control"],
  ["Cc1cc(C)c(SC2c3ccccc3-c3ccccc32)c(C)c1", "94 % of control"],
  ["Cc1ccc(S(=O)(=O)SCC(=O)c2ccc([N+](=O)[O-])cc2)cc1", "92 % of control"],
  ["O=[N+]([O-])CS(=O)(=O)N1CCOCC1", "110 % of control"],
  ["O=C(NO)c1ccncc1", "97 % of control"],
  ["CC(=O)OCC1CCCN1C(C)=O (stereo not drawn)", "97 % of control"],
  ["CCc1ccccc1OCC1CO1 (stereo not drawn)", "102 % of control"]
]}

----------
Each record here notes measured T/C.
# Tested on: CD2F1 mice, L1210 leukemia ip, survival T/C
# assay.explanation: NCI In Vivo Anticancer Drug Screen. Data for tumor model L1210 Leukemia (intraperitoneal) in CD2F1 (CDF1) mice
# measurement.setup: endpoint: mean survival time; dose: 100.0 mg/kg/injection; schedule: Q04DX003 (ip); vehicle: Klucel (hydroxypropylcellulose) (HPC); higher = longer survival
Inconclusive results and toxic doses are left out.

{"columns": ["molecule", "T/C"],
 "data": [
  ["CCC(c1ccc2cc(OC)ccc2c1)C(C(=O)O)C(=O)O (centres undefined)", "95 % of control"],
  ["ClC1C(Cl)C(Cl)C(Cl)C(Cl)C1Cl (centres undefined)", "102 % of control"],
  ["CC(CCC(=O)c1ccccc1)c1ccc2ccccc2c1 (centres undefined)", "106 % of control"],
  ["CC(=O)c1ccc(-c2ccccc2)cc1", "102 % of control"],
  ["Cc1c[nH]c(=O)n(CC(=O)C2CCC3C4CCC5=CC(=O)CCC5(C)C4CCC23C)c1=O (centres undefined)", "98 % of control"],
  ["CCN(CC)CC(COC)Oc1cc(C)ccc1C(C)C (centres undefined)", "92 % of control"],
  ["ClCCN(CCCl)c1ccc(N=Nc2ccccc2)cc1", "102 % of control"],
  ["CC12CCC(=O)C=C1CCC1C2C(=O)CC2(C)C1CCC2(O)C(=O)Cn1c(=O)[nH]cc(F)c1=O (centres undefined)", "97 % of control"],
  ["Nc1cccc2c1-c1ccccc1C2", "96 % of control"]
]}

----------
# System: CD2F1 mice, L1210 leukemia ip, survival T/C
# assay.explanation: NCI In Vivo Anticancer Drug Screen. Data for tumor model L1210 Leukemia (intraperitoneal) in CD2F1 (CDF1) mice
# measurement.setup: endpoint: mean survival time; dose: 50.0 mg/kg/injection; schedule: Q01DX009 (ip); vehicle: other; higher = longer survival
# Protocol: The antitumor activity of compounds was measured in mice bearing transplantable tumors. Survival or tumor size were measured and the results are expressed as the measurement made in the treated group (T) divided by the measurement made in the vehicle treated control group (C). The tumor model used in this assay is L1210 Leukemia (intraperitoneal) in CD2F1 (CDF1) mice
Toxic doses and inconclusive results are not listed.
Each record here notes measured T/C.
quantity.measured: T/C

{"columns": ["molecule", "target", "meas.value"],
 "data": [
  ["CC(=O)OCC1OC(OC(C)=O)C(NC(=O)Nc2cccc([N+](=O)[O-])c2)C(OC(C)=O)C1OC(C)=O (centres undefined)", "CD2F1 mice, L1210 leukemia ip, survival T/C", "98 % of control"],
  ["O=C1c2ccccc2C(=O)c2c(O)c(CCCN3C(=O)c4ccccc4C3=O)cc(O)c21", "CD2F1 mice, L1210 leukemia ip, survival T/C", "87 % of control"],
  ["CCOC(=O)C1C(=O)N(C)C(=O)N1c1ccccc1 (centres undefined)", "CD2F1 mice, L1210 leukemia ip, survival T/C", "87 % of control"],
  ["O=C(CCCl)c1ccccc1", "CD2F1 mice, L1210 leukemia ip, survival T/C", "100 % of control"]
]}

----------
Each record here notes measured T/C.
# Tested on: CD2F1 mice, L1210 leukemia ip, survival T/C
# assay.explanation: NCI In Vivo Anticancer Drug Screen. Data for tumor model L1210 Leukemia (intraperitoneal) in CD2F1 (CDF1) mice
# measurement.setup: endpoint: mean survival time; dose: 100.0 mg/kg/injection; schedule: Q01DX001 (ip); vehicle: saline with Tween-80; higher = longer survival
Inconclusive results and toxic doses are left out.

{"columns": ["molecule", "T/C"],
 "data": [
  ["O/N=C1/C2CCC(C2)C1C(O)(C(F)(F)F)C(F)(F)F (stereo unspecified)", "102 % of control"],
  ["c1ccc2nc3c(nc2c1)[nH]c1ccccc13", "100 % of control"],
  ["CC(C)C(Nc1sc([N+](=O)[O-])cc1[N+](=O)[O-])C(=O)O (stereo unspecified)", "90 % of control"],
  ["CC(=O)OC1CCC2(C)C(=CCC3C2CCC2(C)C(C(C)C(=O)O)CCC32)C1 (stereo unspecified)", "102 % of control"],
  ["COc1ccc2c(c1O)-c1c(OC)c(OC)cc3c1C(C2)N(C)CC3 (stereo unspecified)", "97 % of control"],
  ["O=C(NCCN=Cc1ccccc1)c1ccccc1", "108 % of control"]
]}

----------
# Test system: CD2F1 mice, L1210 leukemia ip, survival T/C
# assay.explanation: NCI In Vivo Anticancer Drug Screen. Data for tumor model L1210 Leukemia (intraperitoneal) in CD2F1 (CDF1) mice
# measurement.setup: endpoint: mean survival time; dose: 200.0 mg/kg/injection; schedule: Q04DX003 (ip); vehicle: saline with Tween-80; higher = longer survival
Toxic doses and inconclusive results are not listed.

{"columns": ["compound", "T/C"],
 "data": [
  ["CC(C)(C)C(=O)CC(=O)C(C)(C)C.CC(C)(C)C(=O)CC(=O)C(C)(C)C.CC(C)(C)C(=O)CC(=O)C(C)(C)C.[Fe]", "96 % of control"],
  ["CC(C)CCOC(=O)CN(CC(=O)OCCC(C)C)c1ccccc1", "97 % of control"],
  ["S=C(NCCSSCCNC(=S)Nc1ccccc1)Nc1ccccc1", "94 % of control"],
  ["CCCCCCCCCC(=O)NC(=S)Nc1c(C)cccc1C", "95 % of control"],
  ["CC(=O)C1=C(C)NC(C)=C(C(C)=O)C1c1cccc([N+](=O)[O-])c1", "91 % of control"],
  ["C[C@]12CCCC[C@@H]1CC[C@@H]1[C@@H]2CC[C@]2(C)C(=O)CC[C@@H]12", "91 % of control"],
  ["CC(C#N)(Cc1ccccc1)Nc1ccccc1 (stereo unspecified)", "91 % of control"],
  ["Cc1c(O)c(N=NC(N)=S)c2ccccc2c1O", "102 % of control"],
  ["CCc1ccc(OS(=O)(=O)c2cccc([N+](=O)[O-])c2)cc1", "105 % of control"],
  ["CCOC(=O)/C(=C/c1ccc(OCc2ccccc2)cc1)P(=O)(OCC)OCC", "96 % of control"],
  ["COc1cc(CN(C)CCO)ccc1OCc1ccccc1", "96 % of control"]
]}

----------
# Tested on: CD2F1 mice, L1210 leukemia ip, survival T/C
# assay.explanation: NCI In Vivo Anticancer Drug Screen. Data for tumor model L1210 Leukemia (intraperitoneal) in CD2F1 (CDF1) mice
# measurement.setup: endpoint: mean survival time; dose: 50.0 mg/kg/injection; schedule: Q01DX009 (ip); vehicle: saline; higher = longer survival
# Method: The antitumor activity of compounds was measured in mice bearing transplantable tumors. Survival or tumor size were measured and the results are expressed as the measurement made in the treated group (T) divided by the measurement made in the vehicle treated control group (C). The tumor model used in this assay is L1210 Leukemia (intraperitoneal) in CD2F1 (CDF1) mice
Toxic doses and inconclusive results are not listed.
quantity.measured: T/C

{"columns": ["compound", "target", "quantity.measured", "meas.value"],
 "data": [
  ["NCc1ccc(O)c(O)c1", "CD2F1 mice, L1210 leukemia ip, survival T/C", "T/C", "115 % of control"],
  ["C(CCSC1=NCCN1)CCSC1=NCCN1", "CD2F1 mice, L1210 leukemia ip, survival T/C", "T/C", "103 % of control"],
  ["O=C(O)C1CCCN1C(=O)C(CSC(c1ccccc1)(c1ccccc1)c1ccccc1)NC(c1ccccc1)(c1ccccc1)c1ccccc1 (stereo unspecified)", "CD2F1 mice, L1210 leukemia ip, survival T/C", "T/C", "101 % of control"],
  ["Brc1c(Br)c(Br)c2n[nH]nc2c1Br", "CD2F1 mice, L1210 leukemia ip, survival T/C", "T/C", "104 % of control"],
  ["CN(N=O)C(=O)NCC1OC(OC2(CO)OC(CNC(=O)N(C)N=O)C(O)C2O)C(O)C(O)C1O (stereo unspecified)", "CD2F1 mice, L1210 leukemia ip, survival T/C", "T/C", "119 % of control"],
  ["CCOC(=O)NCNC(C)C(=O)O (stereo unspecified)", "CD2F1 mice, L1210 leukemia ip, survival T/C", "T/C", "115 % of control"]
]}

meta.source: PubChem BioAssay AID256
